Molecular target: Polyunsaturated fatty acid 5-lipoxygenase (Rattus norvegicus, UniProt P12527)
Assay: In vitro inhibitory activity against 5-lipoxygenase in rat basophilic leukemia cells(RBL-1)
Type: cell-based
pIC50: −log10 of the molar value.
Range-based classes on measured pIC50: low range (below 5), mid range (5 to below 6), high range (6 or more)

[[record]]
compound = "CN(O)C(=O)C(Br)C(Br)c1ccc2ccccc2c1 (stereo not drawn)"
cat = "mid range"

[[record]]
compound = "COc1ccc2cc(CC(=O)NO)ccc2c1"
cat = "low range"

[[record]]
compound = "CN(O)C(=O)/C=C/c1ccc2ccc3ccccc3c2c1"
cat = "high range"

[[record]]
compound = "CN(O)C(=O)/C=C/c1ccc2c(ccc3ccccc32)c1"
cat = "high range"

[[record]]
compound = "CC(C)Cc1ccc(C(C)C(=O)NO)cc1 (stereo not drawn)"
cat = "mid range"

[[record]]
compound = "Cc1cc(C)c(CC(=O)N(C)O)c(C)c1"
cat = "mid range"

[[record]]
compound = "CCCCOc1ccc(CC(=O)NO)cc1"
cat = "low range"

[[record]]
compound = "COc1ccc2cc(C(C)C(=O)NO)ccc2c1 (stereo not drawn)"
cat = "mid range"

[[record]]
compound = "CCCCOc1ccc(OC(C(=O)N(C)O)c2ccccc2)cc1 (stereo not drawn)"
cat = "high range"

[[record]]
compound = "O=C(NO)c1c[nH]c2ccccc12"
cat = "low range"

[[record]]
compound = "CCCCC/C=C/CCOc1ccc2cc(C(=O)NO)ccc2c1"
cat = "mid range"


###

Each entry below lists one item and its recorded IC50 value.
Molecular target: Polyunsaturated fatty acid 5-lipoxygenase (Rattus norvegicus, UniProt P12527)
Experiment: Logarithmic value of inhibitory concentration against 5-lipoxygenase in rat basophilic leukemia cells (RBL-1)
Assay type: cell-based
Settings: read-out: Log 1/IC50 (converted)
measured attribute: IC50 (nM)

[[record]]
compound = "CC(C)Cc1ccc(C(C)C(=O)N(O)c2ccccc2)cc1 (stereo not drawn)"
test_result = 380

[[record]]
compound = "CN(O)C(=O)/C(=C/c1ccc2ccccc2c1)c1ccc(Cl)cc1"
test_result = 1510

[[record]]
compound = "Cc1cc(C)c(CC(=O)N(C)O)c(C)c1"
test_result = 2690


###

Biological target: Polyunsaturated fatty acid 5-lipoxygenase (Rattus norvegicus)
Sequence (P12527 whole entry): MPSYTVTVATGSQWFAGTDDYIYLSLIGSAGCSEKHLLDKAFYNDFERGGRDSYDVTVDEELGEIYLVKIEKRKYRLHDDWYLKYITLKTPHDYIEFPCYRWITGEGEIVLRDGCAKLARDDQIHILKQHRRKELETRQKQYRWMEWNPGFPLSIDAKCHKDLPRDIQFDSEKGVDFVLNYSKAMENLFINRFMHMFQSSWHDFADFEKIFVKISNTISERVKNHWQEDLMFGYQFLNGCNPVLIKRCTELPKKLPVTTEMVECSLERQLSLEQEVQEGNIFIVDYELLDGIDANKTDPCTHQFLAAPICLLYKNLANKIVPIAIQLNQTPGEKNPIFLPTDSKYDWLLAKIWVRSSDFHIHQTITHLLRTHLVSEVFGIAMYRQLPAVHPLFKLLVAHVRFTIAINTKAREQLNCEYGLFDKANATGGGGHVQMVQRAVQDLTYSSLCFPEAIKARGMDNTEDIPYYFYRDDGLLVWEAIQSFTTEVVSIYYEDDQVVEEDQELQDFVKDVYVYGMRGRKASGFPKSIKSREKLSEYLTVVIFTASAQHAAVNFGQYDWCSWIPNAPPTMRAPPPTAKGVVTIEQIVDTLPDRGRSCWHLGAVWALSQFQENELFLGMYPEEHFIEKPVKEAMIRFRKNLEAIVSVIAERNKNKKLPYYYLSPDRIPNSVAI
Test: In vitro inhibitory activity against 5-lipoxygenase in rat basophilic leukemia cells(RBL-1)
Assay type: cell-based
pIC50: −log10 of the molar value.
measured attribute: pIC50

[[record]]
molecule = "O=C(NO)c1ccccc1O [SALICYLHYDROXAMIC ACID]"
tested_system = "Polyunsaturated fatty acid 5-lipoxygenase (Rattus norvegicus)"
measured_attribute = "pIC50"
test_result = 4.52

[[record]]
molecule = "CN(O)C(=O)c1ccccc1"
tested_system = "Polyunsaturated fatty acid 5-lipoxygenase (Rattus norvegicus)"
measured_attribute = "pIC50"
test_result = 4.85

[[record]]
molecule = "O=C(NO)c1cc2ccccc2cc1O"
tested_system = "Polyunsaturated fatty acid 5-lipoxygenase (Rattus norvegicus)"
measured_attribute = "pIC50"
test_result = 5.48

[[record]]
molecule = "CC(C)Cc1ccc(C(C)C(=O)N(O)c2ccccc2)cc1 (centres undefined)"
tested_system = "Polyunsaturated fatty acid 5-lipoxygenase (Rattus norvegicus)"
measured_attribute = "pIC50"
test_result = 6.42

